// compounds with reported IC50 on F1F0-ATPase (Bos taurus), multi-publication

# example entries with known answers
[
  {
    "compound": "CC(C)(C)CNC(=NC(=O)c1ccc2nonc2c1)Nc1n[nH]c2cc(F)ccc12",
    "IC50": "5 to 16 µM"
  },
  {
    "compound": "CC(C)OCCCNC(=NC(=O)c1ccc(F)c(F)c1)Nc1cc(-c2cc(F)cc(Cl)c2)n[nH]1",
    "IC50": "< 10 µM"
  },
  {
    "compound": "CC(C)(C)NC(=NC(=O)c1ccc(C(F)(F)F)cc1)Nc1cc(-c2ccccc2)[nH]n1",
    "IC50": "< 10 µM"
  },
  {
    "compound": "COc1ccc(-c2cc(N/C(=N\\C(=O)c3ccc(F)c(F)c3)Nc3cc(F)cc(Cl)c3)[nH]n2)cc1",
    "IC50": "< 10 µM"
  },
  {
    "compound": "CC(C)(C)c1ccccc1N/C(=N/C(=O)c1ccc(F)c(F)c1)Nc1cccc(O)n1",
    "IC50": "< 10 µM"
  }
]

Moving on to the next compound.
Suppose we examine the compound CCC(C)N/C(=N/C(=O)c1ccc(F)c(F)c1)Nc1n[nH]c2cc(C(F)(F)F)ccc12 (stereo not drawn) ; what IC50 value has been reported?
< 5 µM

* * *

// compounds with reported pIC50 on UniProt P13621, multi-publication
pIC50: −log10 of the molar value.

# example entries with known answers
[
  {
    "compound": "Cc1ccc(-c2cc(N/C(=N\\C(=O)c3ccc(C(F)(F)F)cc3)NC(C)C)[nH]n2)cc1F",
    "pIC50": "> 5.00"
  },
  {
    "compound": "CCOCC(C)NC(=NC(=O)c1ccc(F)c(F)c1)Nc1cc(-c2ccc(Cl)cc2)n[nH]1 (centres unmarked)",
    "pIC50": "> 5.00"
  },
  {
    "compound": "N#Cc1cccc(C(=O)/N=C(\\Nc2cc(-c3ccc(Cl)cc3)n[nH]2)NC2CCCC2)c1",
    "pIC50": "> 5.00"
  },
  {
    "compound": "Cc1c(Cl)cccc1N/C(=N/C(=O)c1cn(C)nc1C(F)(F)F)Nc1cc(-c2ccc(O)c(F)c2)n[nH]1",
    "pIC50": "> 5.30"
  },
  {
    "compound": "O=C(N=C(Nc1cc(C(F)(F)F)n[nH]1)NC1CCC(F)(F)CC1)c1ccc(Cl)c(F)c1",
    "pIC50": "> 5.00"
  },
  {
    "compound": "CCOC(=O)N[C@@H]1CCC[C@@H](N/C(=N\\C(=O)c2ccc(F)c(F)c2)Nc2cc(F)cc(Cl)c2)C1",
    "pIC50": "> 5.00"
  }
]

Form field: pIC50 recorded for COCC(C)N/C(=N/C(=O)c1ccc(F)c(F)c1)Nc1cc(C(F)(F)F)n[nH]1 (centres unmarked) with UniProt P13621 (enter value)
> 5.00

Thanks! And Cc1ccc(-c2cc(N/C(=N\C(=O)c3ccc(C(F)(F)F)cc3)NC3CC3)[nH]n2)cc1F ?
> 5.00

Thanks! And CCOC(=O)N[C@H]1CC[C@H](N/C(=N\C(=O)c2ccc(F)c(F)c2)NCc2cccc(Cl)c2)CC1 ?
> 5.00

Thanks! And Cn1cc(C(=O)/N=C(\Nc2cc(-c3ccc(O)c(F)c3)n[nH]2)Nc2cccc(Cl)c2F)c(C(F)(F)F)n1 ?
> 5.30

* * *

pIC50: −log10 of the molar value.
// compounds with reported pIC50 on F1F0-ATPase (Bos taurus), multi-publication

[
  {
    "cpd-smiles": "CCOC(=O)N[C@H]1CC[C@H](N/C(=N\\C(=O)c2ccc(F)c(F)c2)NCc2cc(F)cc(F)c2)CC1",
    "pIC50": "> 5.00"
  },
  {
    "cpd-smiles": "Cc1oncc1C(=O)/N=C(/NCC(C)C)Nc1cc(-c2ccc(F)cc2)[nH]n1",
    "pIC50": "< 4.80"
  }
]

Moving on to the next compound.
Suppose we examine the compound O=C(/N=C(\Nc1cccc(O)n1)NC1CCOCC1)c1ccc(Cl)cc1 ; what pIC50 value has been reported?
< 5.00

* * *

// compounds with reported IC50 on F1F0-ATPase (Bos taurus), multi-publication

[
  {
    "cpd-smiles": "O=C(/N=C(/NCc1ccccc1C(F)(F)F)Nc1cc(C(F)(F)F)n[nH]1)c1ccc(Cl)cc1",
    "IC50": "< 10 µM"
  },
  {
    "cpd-smiles": "COC[C@H](C)NC(=NC(=O)c1ccc(F)c(F)c1)Nc1n[nH]c2cc(Cl)c(F)cc12",
    "IC50": "< 5 µM"
  },
  {
    "cpd-smiles": "COC[C@H](C)N/C(=N/C(=O)c1ccc(Cl)cc1)Nc1n[nH]c2cc(F)ccc12",
    "IC50": "< 5 µM"
  },
  {
    "cpd-smiles": "CCOC(=O)N[C@H]1CC[C@H](N/C(=N\\C(=O)c2ccc(F)c(F)c2)NCc2ccc(F)cc2Cl)CC1",
    "IC50": "< 10 µM"
  },
  {
    "cpd-smiles": "CC(C)(C)c1ccccc1N/C(=N/C(=O)c1ccc(C(F)(F)F)cc1)Nc1cccc(O)n1",
    "IC50": "< 10 µM"
  },
  {
    "cpd-smiles": "Cn1cc(C(=O)N=C(Nc2ccc(F)cc2)Nc2cc(-c3ccc(O)cc3F)n[nH]2)c(C(F)(F)F)n1",
    "IC50": "< 5 µM"
  },
  {
    "cpd-smiles": "Cc1ccc(-c2cc(N/C(=N\\C(=O)c3ccc(F)c(F)c3)NCC(C)C)[nH]n2)cc1F",
    "IC50": "< 10 µM"
  },
  {
    "cpd-smiles": "CC(C)(C)N/C(=N/C(=O)c1cccc(F)c1)Nc1cc(-c2cccc(Cl)c2)n[nH]1",
    "IC50": "< 10 µM"
  }
]

Moving on to the next compound.
Form field: IC50 recorded for CCOC(=O)N[C@H]1CC[C@H](N/C(=N\C(=O)c2ccc(C(F)(F)F)cc2)Nc2cccc(Cl)c2)CC1 with F1F0-ATPase (Bos taurus) (enter value)
< 10 µM

* * *

pIC50: −log10 of the molar value.
// compounds with reported pIC50 on F1F0-ATPase (Bos taurus, UniProt P13621), multi-publication

# example entries with known answers
[
  {
    "compound": "CC(N/C(=N/C(=O)c1ccc(C(F)(F)F)cc1)Nc1cc(C(F)(F)F)[nH]n1)c1ccc(Cl)cc1 (stereo not drawn)",
    "pIC50": "> 5.00"
  },
  {
    "compound": "O=C(/N=C(/NCc1ccc(F)cc1F)N[C@H]1CC[C@H](O)CC1)c1ccc(F)c(F)c1",
    "pIC50": "< 5.00"
  },
  {
    "compound": "COCC(C)NC(=NC(=O)c1ccc(F)c(F)c1)Nc1cc(-c2ccc(F)cc2)n[nH]1 (stereo not drawn)",
    "pIC50": "> 5.00"
  },
  {
    "compound": "CCOC(=O)N[C@H]1CC[C@H](N/C(=N/C(=O)c2ccc(F)c(F)c2)Nc2cccc(C(F)(F)F)c2)CC1",
    "pIC50": "> 5.00"
  },
  {
    "compound": "O=C(/N=C(\\Nc1cc(C(F)(F)F)[nH]n1)NC1CCCCCC1)c1ccc(C(F)(F)F)cc1",
    "pIC50": "> 5.00"
  }
]

Suppose we examine the compound CCOCCNC(=NC(=O)c1cccc(Cl)c1)Nc1n[nH]c2cc(Cl)c(F)cc12 ; what pIC50 value has been reported?
> 5.30

Thanks! And O=C(/N=C(/NCc1ccc(F)cc1Cl)Nc1cc(C(F)(F)F)[nH]n1)c1ccc(C(F)(F)F)cc1 ?
> 5.00

Thanks! And CC(C)(C)NC(=NC(=O)c1ccc(Cl)c(F)c1)Nc1cc(-c2ccc(Cl)cc2)n[nH]1 ?
> 5.00

Thanks! And Cc1cc(C(=O)/N=C(\Nc2cc(-c3ccc(F)cc3)n[nH]2)NC(C)C)c(C(F)(F)F)o1 ?
> 5.30

Thanks! And Cc1cc(C(=O)N=C(Nc2cc(-c3ccc(F)cc3)n[nH]2)NC(C)(C)C)ccc1F ?
> 5.00

Thanks! And O=C(/N=C(/NCc1ccc(F)c(Cl)c1)N[C@H]1CC[C@H](Nc2ncccn2)CC1)c1ccc(F)c(F)c1 ?
> 5.00

* * *

pIC50: −log10 of the molar value.
// compounds with reported pIC50 on F1F0-ATPase (Bos taurus, UniProt P13621), multi-publication

# example entries with known answers
[
  {
    "compound": "CC(C)(C)N/C(=N/C(=O)c1ccc(Cl)cc1)Nc1n[nH]cc1C#N",
    "system-tested": "F1F0-ATPase (Bos taurus, UniProt P13621)",
    "result": "> 5.00"
  },
  {
    "compound": "CC(C)(C)N/C(=N/C(=O)c1ccc(S(N)(=O)=O)cc1)Nc1cc(-c2ccc(F)cc2)n[nH]1",
    "system-tested": "F1F0-ATPase (Bos taurus, UniProt P13621)",
    "result": "> 5.00"
  },
  {
    "compound": "O=C(/N=C(/NCc1ccc(Cl)c(F)c1)N[C@H]1CC[C@H](Nc2ncccn2)CC1)c1ccc(F)c(F)c1",
    "system-tested": "F1F0-ATPase (Bos taurus, UniProt P13621)",
    "result": "> 5.00"
  },
  {
    "compound": "CCOCC(C)NC(=NC(=O)c1ccc(C(F)(F)F)cc1)Nc1cc(-c2ccc(Cl)cc2)n[nH]1 (centres unmarked)",
    "system-tested": "F1F0-ATPase (Bos taurus, UniProt P13621)",
    "result": "> 5.00"
  }
]

Suppose we examine the compound COCC(C)NC(=NC(=O)c1cn(C)nc1C(F)(F)F)Nc1n[nH]c2cncc(F)c12 (centres unmarked) ; what pIC50 value has been reported?
< 4.80

Thanks! And O=C(/N=C(/NCc1ccc(F)cc1Cl)Nc1cc(-c2cccc(Cl)c2)n[nH]1)c1ccc(Cl)c(F)c1 ?
> 5.00

Thanks! And CCC(C)(C)N/C(=N/C(=O)c1ccc(F)c(F)c1)Nc1cccc(O)n1 ?
> 5.00

Thanks! And COC[C@H](C)N/C(=N/C(=O)c1ccc(F)c(F)c1)Nc1n[nH]c2cncc(F)c12 ?
< 4.80
